Below: a set of entries, each annotated with reported CC50 at 72 h.
- Assay Remarks: Nonspecific cytotoxic effects (CC50), CytoTox 96 kit

Examples from the recorded data:
CC(C)C[C@H](NC(=O)OC(C)(C)C1CCC(F)(F)CC1)C(=O)N[C@@H](C[C@@H]1CCNC1=O)C(O)S(=O)(=O)[O-].[Na+] (stereo partly drawn) [Compound 13c]; > 100 µM
CC(C)C[C@H](NC(=O)OC(Cc1ccccc1)c1ccccc1)C(=O)N[C@H](C=O)C[C@@H]1CCNC1=O (stereo partly drawn) [Compound 24b]; > 100 µM

From here, focus on the item given below.
In plain terms, CC(C)C[C@H](NC(=O)OC(C)(C)C1CCC(F)(F)CC1)C(=O)N[C@H](C=O)C[C@@H]1CCNC1=O [Compound 13b] has a documented CC50 at 72 h of > 100 µM
